Data provenance: patent US10689377B2

Biological target: KRas G12C (Homo sapiens, UniProt P01116, G12C)
Sequence (P01116 1-188 isoform P01116-2 G12C): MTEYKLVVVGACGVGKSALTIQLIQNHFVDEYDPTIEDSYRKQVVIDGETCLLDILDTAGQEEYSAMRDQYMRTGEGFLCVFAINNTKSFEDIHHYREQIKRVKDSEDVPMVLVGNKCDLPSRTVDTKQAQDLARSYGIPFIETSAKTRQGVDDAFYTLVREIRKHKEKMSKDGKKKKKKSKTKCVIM
Test: Cellular inhibition of KRas G12C measured by Phospho-ERK in NCI-H358 cells
Format: cell-based
Details: pERK(Thr202/Tyr204) normalized with GAPDH, NCI-H358 cells, 3 hours; read-out: IC50
pIC50: −log10 of the molar value.
Reported values of pIC50 for individual entries

Some compounds with known pIC50 results, for comparison:
compound | pIC50
Cc1cccc2cccc(N3CCc4c(nc(OC[C@@H]5CCCN5C)nc4N4CCN(C(=O)/C=C/Cn5cccn5)[C@@H](CC#N)C4)C3)c12 [Example 509] | 6.00 to 10.00
C=CC(=O)N1CCN(c2nc(OCCN(C)C)nc3c2CCN(c2cc(O)cc4ccccc24)C3)CC1CO (stereo not shown) [Example 50] | < 6.00
C=CC(=O)N1CCN(c2nc(OCCCN3CCOCC3)nc3c2CCN(c2cc(O)cc4cc(C)ccc24)C3)CC1 [Example 43] | < 6.00
Cc1cccc2cccc(N3CCc4c(nc(OCCC(=O)N(C)C)nc4N4CCN(C(=O)/C=C/CN(C)C)[C@@H](CC#N)C4)C3)c12 [Example 463] | 6.00 to 10.00
C=CC(=O)N1CCN(c2nc(OCC(C)(C)N(C)C)nc3c2CCN(c2cccc4ccccc24)C3)CC1CC#N (stereo not shown) [Example 269] | 6.00 to 10.00

Record C=CC(=O)N1CCN(c2nc(OCCN3CCC(F)(F)C3)nc3c2CCN(c2cc(O)cc4ccccc24)C3)CC1 [Example 139] . Reported pIC50: < 6.00

Record C=CC(=O)N1CCN(c2nc(OC[C@@H]3CCCN3C)nc3c2CCN(c2cccc4ccncc24)C3)C[C@@H]1CC#N [Example 430] . Reported pIC50: 6.00 to 10.00
